# Test system: A498
# test_summary: minimum viability across doses, drug + dasatinib, relative to DMSO (fraction); higher = less growth inhibition
# study_conditions: treatment: drug + dasatinib (fixed dose, not stated); 5 days
Please provide measured minimum viability across doses for the entries that follow.
Form: value (number only, do not type unit).

What the record says about CNC(=O)c1ccccc1Nc1nc(Nc2ccc(N3CCOCC3)cc2OC)ncc1Cl [NVP-TAE226] + Cc1nc(Nc2ncc(C(=O)Nc3c(C)cccc3Cl)s2)cc(N2CCN(CCO)CC2)n1 [dasatinib] : minimum viability across doses is 0.201

Entry COc1ccc(-c2ccc3c(N4CCOC[C@@H]4C)nc(N4CCOC[C@@H]4C)nc3n2)cc1CO [AZD8055] + Cc1nc(Nc2ncc(C(=O)Nc3c(C)cccc3Cl)s2)cc(N2CCN(CCO)CC2)n1 [dasatinib] — recorded minimum viability across doses = 0.182
